# target entity: dN-SARM1 protein (Homo sapiens, UniProt Q6SZW1)
# Sequence (Q6SZW1 28-724): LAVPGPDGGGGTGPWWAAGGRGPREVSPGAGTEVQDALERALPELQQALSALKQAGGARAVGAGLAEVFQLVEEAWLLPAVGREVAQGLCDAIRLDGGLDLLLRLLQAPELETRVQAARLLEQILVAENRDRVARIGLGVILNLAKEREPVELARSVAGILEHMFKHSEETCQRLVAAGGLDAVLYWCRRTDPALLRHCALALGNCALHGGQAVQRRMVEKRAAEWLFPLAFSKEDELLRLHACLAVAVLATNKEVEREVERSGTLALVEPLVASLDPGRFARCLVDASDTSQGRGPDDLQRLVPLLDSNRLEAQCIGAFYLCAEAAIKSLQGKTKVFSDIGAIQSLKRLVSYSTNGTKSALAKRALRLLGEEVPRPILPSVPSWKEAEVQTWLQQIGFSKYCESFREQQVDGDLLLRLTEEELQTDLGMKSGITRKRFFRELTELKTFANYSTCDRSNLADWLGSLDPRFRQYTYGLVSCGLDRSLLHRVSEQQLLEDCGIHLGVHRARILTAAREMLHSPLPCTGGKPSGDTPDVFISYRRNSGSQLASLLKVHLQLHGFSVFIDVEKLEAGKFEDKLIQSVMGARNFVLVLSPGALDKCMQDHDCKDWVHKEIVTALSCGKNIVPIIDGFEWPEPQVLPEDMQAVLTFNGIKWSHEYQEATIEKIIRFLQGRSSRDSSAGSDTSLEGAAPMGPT
pIC50: −log10 of the molar value.
# maps each entry to its pIC50

Here is how some compounds turned out for pIC50.
C=CCN(C(=O)OC(C)(C)C)c1ccc2ncc(-c3cccc(N)c3)n2c1	5.00 to 6.00
CN(C(=O)OC(C)(C)C)c1ccc2ncc(-c3cccc4cnn(C)c34)n2c1	> 6.00
CNc1ccc2ncc(-c3ccccc3C(C)NC(=O)C3CCOCC3)n2c1 (centres unmarked)	5.00 to 6.00

For reference, reported pIC50 for CN(C(=O)OC(C)(C)C)c1ccc2ncc(-c3ccncc3F)n2c1 stands at 5.00 to 6.00

Sure, the documented pIC50 for CC(C)(C)OC(=O)NCc1ccc2ncc(I)n2c1 is 5.00 to 6.00

---

Below are IC50 values recorded for dN-SARM1 protein (Homo sapiens).

These solved cases illustrate the format of a correct answer.
CNc1ccc2ncc(-c3ccccc3)n2c1	< 1000 nM
CC(=O)N(C)c1ccc2ncc(-c3cccs3)n2c1	1000 to 10000 nM
CN(C(=O)OC(C)(C)C)c1ccc2ncc(-c3cccc(NC(=O)C4CCOCC4)c3)n2c1	1000 to 10000 nM
CNc1ccc2ncc(-c3cccc4c3CN(CCN(C)C)C4=O)n2c1	1000 to 10000 nM
COCCOCC(=O)Nc1cccc(-c2cnc3ccc(CNC(=O)OC(C)(C)C)cn23)c1	< 1000 nM

Record C=CCN(C(=O)OC(C)(C)C)c1ccc2ncc(-c3cccc(NC(=O)C4CCOCC4)c3)n2c1 has dN-SARM1 protein (Homo sapiens) IC50 equal to 1000 to 10000 nM

# lookup: CNc1ccc2ncc(-c3cccc(S(=O)(=O)NC)c3)n2c1 on dN-SARM1 protein (Homo sapiens), IC50 = 1000 to 10000 nM

---

# target entity: SARM1 protein in iSARM1 (HEK293) cells (Homo sapiens, UniProt Q6SZW1)
# Construct: The full-length SARM1 was synthesized into the pUC57 plasmid by WZ Biosciences Inc., and PCR was performed using pUC57-SARM1 as a DNA template
# test name: Inhibitory activity in inducible SARM1 overexpressing cell line, intracellular cADPR level
# reported conditions: activator CZ-48 100 μM, cADPR content
Where a name gives a salt, the structure may show the parent alone.
assay metric: EC50

These recorded examples may help you get a feel for the data.
CNc1ccc2ncc(-c3cccc(NC(=O)COCCOCC(=O)N[C@H](C(=O)N4C[C@H](O)C[C@H]4C(=O)NCc4ccc(-c5scnc5C)cc4)C(C)(C)C)c3)n2c1 [Compound 114, hydrochloride]	1 to 10 µM
CC(C)(C)OC(=O)Nc1ccc2ncc(I)n2c1	1 to 10 µM
CNc1ccc2ncc(-c3cccc(OC)c3)n2c1	1 to 10 µM
FC(F)(F)c1ccc2ncc(-c3ccccc3)n2c1	1 to 10 µM

Record for CN(C(=O)OC(C)(C)C)c1ccc2ncc(-c3cccc(NC(=O)[C@H]4CCOC4)c3)n2c1 under target or system SARM1 protein in iSARM1 (HEK293) cells (Homo sapiens, UniProt Q6SZW1): EC50 reported as < 1 µM

Short answer on SARM1 protein in iSARM1 (HEK293) cells (Homo sapiens, UniProt Q6SZW1) for CC(C)(C)OC(=O)Nc1ccc2ncc(-c3cccc(NC(=O)COCCOCC(=O)Nc4cccc(-c5cnc6ccc(NC(=O)OC(C)(C)C)cn56)c4)c3)n2c1 , EC50: < 1 µM

Kindly note: SARM1 protein in iSARM1 (HEK293) cells (Homo sapiens, UniProt Q6SZW1), CC(C)(C)OC(=O)N(c1ccccc1)c1ccc2ncc(-c3ccccc3)n2c1 , EC50 value reported: 1 to 10 µM

Per the reported SARM1 protein in iSARM1 (HEK293) cells (Homo sapiens, UniProt Q6SZW1) data, CN(C(=O)OC(C)(C)C)c1ccc2ncc(-c3cccc(OCCOC4CCOC4)c3)n2c1 (centres unmarked) has EC50 of < 1 µM
